Species: Rattus norvegicus
Assay: DrugMatrix - Regimen: Daily Repeat
Type: toxicity, organism-based, Sprague-Dawley
Set-up: regimen Daily Repeat, gender Male, age 6-8 weeks
Conditions: in vivo, ip, 0 mg/kg, 120 h, tissue Blood, route intraperitoneal, dose level Control, time 5 day, vehicle 100 % SALINE
Observable: ABSOLUTE LYMPHOCYTE (cells/µL)
Kindly provide the numeric value in cells/µL only, without the unit symbol.

For the substance shown here, LEAD (II) ACETATE , give the reported ABSOLUTE LYMPHOCYTE. 6630

====

Organism: Rattus norvegicus
Assay: DrugMatrix - Regimen: Daily Repeat
Type: toxicity, organism-based, Sprague-Dawley
Parameters: regimen Daily Repeat, gender Male, age 6-8 weeks
Conditions: in vivo, po, 0 mg/kg, […], tissue Blood, route oral GAVAGE, dose level Control, time 14 day, vehicle .5 % CMC
Observable: MEAN CORPUSCULAR HEMOGLOBIN CONCENTRATION (G/DL)
Kindly provide the numeric value in G/DL only, without the unit symbol.

For the molecule shown here, ClC(Cl)Br [BROMODICHLOROMETHANE] , give the reported MEAN CORPUSCULAR HEMOGLOBIN CONCENTRATION. 37.62

For the molecule shown here, CCOP(=S)(OCC)Oc1nc(Cl)c(Cl)cc1Cl [CHLORPYRIFOS] , give the reported MEAN CORPUSCULAR HEMOGLOBIN CONCENTRATION. 32.78

For the molecule shown here, ClC(Br)Br [DIBROMOCHLOROMETHANE] , give the reported MEAN CORPUSCULAR HEMOGLOBIN CONCENTRATION. 37.62

For the molecule shown here, COc1ccc(C(=O)Nc2c(Cl)c[n+]([O-])cc2Cl)c2ccc(C(F)(F)F)nc12 [SCH-351591] , give the reported MEAN CORPUSCULAR HEMOGLOBIN CONCENTRATION. 31.92

====

Species: Rattus norvegicus
Test: DrugMatrix - Regimen: Daily Repeat
Assay type: toxicity, organism-based, Sprague-Dawley
Set-up: regimen Daily Repeat, gender Male, age 6-8 weeks
Conditions: in vivo, po, 0 mg/kg, 2184 h, tissue Blood, route oral GAVAGE, dose level Control, time 91 day, vehicle .5 % CMC
Observable: ABSOLUTE BASOPHIL (cells/µL)
Kindly provide the numeric value in cells/µL only, without the unit symbol.

For the molecule shown here, Cc1ccc2cc3c(ccc4ccccc43)c3c2c1CC3 [3-METHYLCHOLANTHRENE] , give the reported ABSOLUTE BASOPHIL. 130

====

Please go through the items and note down their CARBON DIOXIDE.
Organism: Rattus norvegicus
Experiment: DrugMatrix - Regimen: Daily Repeat
Format: toxicity, organism-based, Sprague-Dawley
Design: regimen Daily Repeat, gender Male, age 6-8 weeks
Settings: in vivo, po, 0 mg/kg, […], tissue Plasma, route oral GAVAGE, dose level Control, time 14 day, vehicle .5 % CMC
Kindly provide the numeric value in mmol/L only, without the unit symbol.

For the compound shown here, ClC(Br)Br , give the reported CARBON DIOXIDE. 34.33

For the compound shown here, ClC(Cl)Br , give the reported CARBON DIOXIDE. 34.33

For the compound shown here, CCOP(=S)(OCC)Oc1nc(Cl)c(Cl)cc1Cl , give the reported CARBON DIOXIDE. 35.17

For the compound shown here, COc1ccc(C(=O)Nc2c(Cl)c[n+]([O-])cc2Cl)c2ccc(C(F)(F)F)nc12 , give the reported CARBON DIOXIDE. 29.33

====

Organism: Rattus norvegicus
Assay: DrugMatrix - Regimen: Daily Repeat
Format: toxicity, organism-based, Sprague-Dawley
Parameters: regimen Daily Repeat, gender Male, age 6-8 weeks
Conditions: in vivo, po, 0 mg/kg, 120 h, tissue Plasma, route oral GAVAGE, dose level Control, time 5 day, vehicle 100 % WATER
Please go through the items and note down their ALANINE AMINOTRANSFERASE.
Kindly provide the numeric value in u/L only, without the unit symbol.

For the compound shown here, Clc1cccc(Cl)c1N=C1NCCN1 , give the reported ALANINE AMINOTRANSFERASE. 56.17

For the compound shown here, CN(C)CCCN1c2ccccc2Sc2ccc(Cl)cc21 , give the reported ALANINE AMINOTRANSFERASE. 46.67

For the compound shown here, Cc1onc(-c2ccccc2Cl)c1C(=O)N[C@@H]1C(=O)N2[C@@H]1SC(C)(C)[C@@H]2C(=O)O , give the reported ALANINE AMINOTRANSFERASE. 50

For the compound shown here, CC(O)CO (stereo not given) , give the reported ALANINE AMINOTRANSFERASE. 50

For the compound shown here, c1ccc([C@H]2CN3CCSC3=N2)cc1 , give the reported ALANINE AMINOTRANSFERASE. 51

For the compound shown here, Nc1c2c(nc3ccccc13)CCCC2 , give the reported ALANINE AMINOTRANSFERASE. 43

For the compound shown here, C[C@H]1c2cccc(O)c2C(=O)C2=C(O)[C@]3(O)C(=O)C(C(N)=O)=C(O)[C@@H](N(C)C)[C@@H]3[C@@H](O)[C@@H]21.O , give the reported ALANINE AMINOTRANSFERASE. 50.17

For the compound shown here, NCCCCCC(=O)O , give the reported ALANINE AMINOTRANSFERASE. 50

For the compound shown here, N[C@@H](Cc1ccc(O)c(O)c1)C(=O)O , give the reported ALANINE AMINOTRANSFERASE. 50.17

For the compound shown here, C=CCC1(C(C)CCC)C(=O)NC(=O)NC1=O (stereo not given) , give the reported ALANINE AMINOTRANSFERASE. 60.5

====

Please go through the items and note down their TOTAL PROTEIN.
Species: Rattus norvegicus
Test: DrugMatrix - Regimen: Daily Repeat
Format: toxicity, organism-based, Sprague-Dawley
Parameters: regimen Daily Repeat, gender Male, age 6-8 weeks
Settings: in vivo, po, 0 mg/kg, 120 h, tissue Plasma, route oral GAVAGE, dose level Control, time 5 day, vehicle .5 % CMC
Could you write the number and then its unit?

For the compound shown here, CCOP(=S)(OCC)Oc1nc(Cl)c(Cl)cc1Cl , give the reported TOTAL PROTEIN. 6.22 G/DL

For the compound shown here, ClC(Cl)Br , give the reported TOTAL PROTEIN. 6.1 G/DL

For the compound shown here, Cc1ccc(/N=C/N(C)/C=N/c2ccc(C)cc2C)c(C)c1 , give the reported TOTAL PROTEIN. 6.1 G/DL

For the compound shown here, NC1=NC(=O)C(c2ccccc2)O1 (centres undefined) , give the reported TOTAL PROTEIN. 5.93 G/DL

For the compound shown here, CCn1cc(C(=O)O)c(=O)c2cc(F)c(N3CCNCC3)cc21 , give the reported TOTAL PROTEIN. 6.1 G/DL

For the compound shown here, OCCN(CCO)c1nc(N2CCCCC2)c2nc(N(CCO)CCO)nc(N3CCCCC3)c2n1 , give the reported TOTAL PROTEIN. 6.32 G/DL

For the compound shown here, ClC(Br)Br , give the reported TOTAL PROTEIN. 6.1 G/DL

For the compound shown here, Cc1nc2n(c(=O)c1CCN1CCC(c3noc4cc(F)ccc34)CC1)CCCC2 , give the reported TOTAL PROTEIN. 6.55 G/DL

For the compound shown here, C1CCC(C(CC2CCCCN2)C2CCCCC2)CC1 (centres undefined) , give the reported TOTAL PROTEIN. 6.23 G/DL

====

Please go through the items and note down their LACTATE DEHYDROGENASE.
Species on record: Rattus norvegicus
Experiment: DrugMatrix - Regimen: Daily Repeat
Type: toxicity, organism-based, Sprague-Dawley
Set-up: regimen Daily Repeat, gender Male, age 6-8 weeks
Conditions: in vivo, po, 0 mg/kg, 72 h, tissue Plasma, route oral GAVAGE, dose level Control, time 3 day, […]
Kindly provide the numeric value in u/L only, without the unit symbol.

For the compound shown here, C[C@H]1O[C@@H](O[C@H]2[C@@H](O)C[C@H](O[C@H]3[C@@H](O)C[C@H](O[C@H]4CC[C@@]5(C)[C@H](CC[C@@H]6[C@@H]5C[C@@H](O)[C@]5(C)[C@@H](C7=CC(=O)OC7)CC[C@]65O)C4)O[C@@H]3C)O[C@@H]2C)C[C@H](O)[C@@H]1O , give the reported LACTATE DEHYDROGENASE. 130.33

For the compound shown here, O=C(O)CCCc1ccc(N(CCCl)CCCl)cc1 , give the reported LACTATE DEHYDROGENASE. 271.5

For the compound shown here, C[C@@H]1CN(c2c(F)c(N)c3c(=O)c(C(=O)O)cn(C4CC4)c3c2F)C[C@H](C)N1 , give the reported LACTATE DEHYDROGENASE. 89.33

For the compound shown here, Cc1oncc1C(=O)Nc1ccc(C(F)(F)F)cc1 [LEFLUNOMIDE] , give the reported LACTATE DEHYDROGENASE. 140.33

For the compound shown here, O=c1oc2ccccc2c(O)c1Cc1c(O)c2ccccc2oc1=O , give the reported LACTATE DEHYDROGENASE. 139.33

For the compound shown here, CCC(C)n1ncn(-c2ccc(N3CCN(c4ccc(OCC5COC(Cn6cncn6)(c6ccc(Cl)cc6Cl)O5)cc4)CC3)cc2)c1=O (configuration not stated) , give the reported LACTATE DEHYDROGENASE. 271.5

For the compound shown here, CCOC(=O)C1=C(COCCN)NC(C)=C(C(=O)OC)C1c1ccccc1Cl (configuration not stated) , give the reported LACTATE DEHYDROGENASE. 89.33
